pIC50 reference
# System Tested: UniProt Q9H1C0
# Sequence (Q9H1C0 whole entry): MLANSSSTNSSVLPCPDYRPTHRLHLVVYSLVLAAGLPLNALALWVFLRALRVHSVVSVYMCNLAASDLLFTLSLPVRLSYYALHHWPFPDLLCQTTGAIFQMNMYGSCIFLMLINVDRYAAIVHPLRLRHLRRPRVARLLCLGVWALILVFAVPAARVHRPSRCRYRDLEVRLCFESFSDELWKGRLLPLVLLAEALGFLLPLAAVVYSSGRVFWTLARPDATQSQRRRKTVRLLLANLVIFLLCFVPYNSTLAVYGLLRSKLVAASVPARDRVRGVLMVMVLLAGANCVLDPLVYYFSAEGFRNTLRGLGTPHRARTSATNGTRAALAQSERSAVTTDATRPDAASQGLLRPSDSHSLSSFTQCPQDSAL
# Assay Overview: In vitro LPA5 receptor assay (LPA-driven intracellular calcium release, FLIPR)
# Run Conditions: RH7777 cells expressing human LPA5 receptors; LPA at EC90
The read-out pIC50 is expressed as -log10 of concentration in moles per litre.

These solved cases illustrate the format of a correct answer.
| Molecule | pIC50 |
| --- | --- |
| O=C(O)c1ccc(CN(Cc2ccccc2)C(=O)c2ccc(OCc3ccccc3F)cc2)cc1 | 7.24 |
| O=C(O)c1ccc(CN(Cc2ccccc2)C(=O)C2CCC(Oc3ccccc3F)CC2)cc1 (centres unmarked) | 6.16 |
| O=C(O)c1ccc(CN(CCC2CC2)C(=O)c2ccc(Oc3c(F)cccc3Cl)cc2)cc1 | 7.24 |
| COc1ccccc1Oc1ccc(C(=O)N(Cc2ccc(C(=O)O)cc2)CC(C)(F)F)cc1 | 8.00 |
| COc1ccccc1Oc1ccc(C(=O)N(Cc2ccc(C(=O)O)cc2)CC2CC2)nc1 | 8.10 |

What the record says about O=C(O)c1ccc(CN(CC(F)F)C(=O)c2ccc(Oc3ccccc3Cl)cc2)cc1 : pIC50 is 6.77

What the record says about COc1ccccc1Oc1ccc(C(=O)N(CCCc2ccccc2)Cc2ccc(C(=O)O)cc2)cc1 : pIC50 is 9.40

What the record says about O=C(O)c1ccc(CN(CC(F)(F)F)C(=O)c2ccc(Oc3ccccc3F)cc2)cc1 : pIC50 is 7.37

Reference source for all entries: patent US9464060B2
